# experimental target: MMP-13 (Homo sapiens, UniProt P45452)
# Construct: made in house; host or cells: baculovirus / insect cells
# test: In vitro metalloprotease inhibition, fluorogenic MCA peptide substrate
# Type: biochemical
# experimental context: recombinant human enzyme, APMA-activated, room temperature, pH 7.5; read-out: MMP-13 IC50
recorded endpoint: IC50 (nM)

Example entries begin here.
COc1ccc(S(=O)(=O)CC(NC(=O)c2ccccc2)C(=O)NO)cc1 (stereo not drawn); 25
Cc1ccc(S(=O)(=O)NC(CS(=O)(=O)c2ccc(Oc3ccccc3)cc2)C(=O)NO)cc1 (stereo not drawn) [Example 12c]; 0.6
O=C(NC(CS(=O)(=O)c1ccc(Sc2ccccc2)cc1)C(=O)NO)c1cccc2ccccc12 (stereo not drawn); 2.5
COc1ccc(S(=O)(=O)CC(NS(C)(=O)=O)C(=O)NO)cc1 (stereo not drawn); 15
O=C(NC(CS(=O)(=O)c1ccc(Sc2ccccc2)cc1)C(=O)NO)OCc1ccccc1 (stereo not drawn) [Example 14c]; 3.7

(I) CCN(CC)c1ccc(C(=O)N[C@@H](CS(=O)(=O)c2ccc(Oc3ccccc3)cc2)C(=O)NO)cc1
(II) CC(CS(=O)(=O)c1ccc(Oc2ccccc2)cc1)(NCc1ccc2ccccc2c1)C(=O)NO (stereo not drawn)
(III) O=C(NC(CS(=O)(=O)c1ccc(Sc2ccccc2)cc1)C(=O)NO)c1ccccc1 (stereo not drawn)
(IV) O=C(N[C@@H](CS(=O)(=O)c1ccc(Sc2ccccc2)cc1)C(=O)NO)OCc1ccccc1
(V) CC(CS(=O)(=O)c1ccc(Oc2ccccc2)cc1)(NC(=O)CN1CCCC1)C(=O)NO (stereo not drawn)
Ordering criterion: IC50; begin with the maximum. # the answer lists labels in the order requested
V, III, I, II, IV
(V: 160 nM, III: 5 nM, I: 2.1 nM, II: 1.4 nM, IV: 0.4 nM)

====

# experimental target: MMP-1 (Homo sapiens, UniProt P03956)
# Sequence (P03956 100-469): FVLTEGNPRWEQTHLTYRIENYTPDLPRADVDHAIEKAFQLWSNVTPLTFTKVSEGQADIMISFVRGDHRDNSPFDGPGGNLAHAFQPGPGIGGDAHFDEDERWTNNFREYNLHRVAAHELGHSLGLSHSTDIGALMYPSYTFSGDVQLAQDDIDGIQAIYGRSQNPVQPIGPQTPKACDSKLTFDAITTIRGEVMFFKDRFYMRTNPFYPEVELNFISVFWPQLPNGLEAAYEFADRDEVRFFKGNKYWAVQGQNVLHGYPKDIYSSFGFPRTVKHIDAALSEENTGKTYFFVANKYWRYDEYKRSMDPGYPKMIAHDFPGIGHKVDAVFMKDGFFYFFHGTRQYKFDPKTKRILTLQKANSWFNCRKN
# test: In vitro metalloprotease inhibition, fluorogenic MCA peptide substrate
# experimental context: recombinant human enzyme, APMA-activated, room temperature, pH 7.5
recorded endpoint: IC50 (µM)

Example entries begin here.
C#CCNC(C)(CS(=O)(=O)c1ccc(Oc2ccccc2)cc1)C(=O)NO (stereo not drawn) [Example 69]; 0.7
CC(=O)NC(CS(=O)(=O)c1ccc(Br)cc1)C(=O)NO (stereo not drawn) [Example 5]; 0.1
CN(C(=O)OC(C)(C)C)[C@H](CS(=O)(=O)c1ccc(Oc2ccccc2)cc1)C(=O)NO [Example 40]; 1.6

(P) O=C(N[C@@H](CS(=O)(=O)c1ccc(Oc2ccccc2)cc1)C(=O)NO)c1ccnc2ccccc12 [Example 51]
(Q) CC(N)(CS(=O)(=O)c1ccc(Oc2ccccc2)cc1)C(=O)NO (stereo not drawn) [Example 38]
Please indicate which item has the smaller measured IC50: P versus Q The response must carry the label of the picked entry.
Q

====

# experimental target: MMP-13 (Homo sapiens)
# Construct: made in house; host or cells: baculovirus / insect cells
# test: In vitro metalloprotease inhibition, fluorogenic MCA peptide substrate
# Assay type: biochemical
# experimental context: recombinant human enzyme, APMA-activated, room temperature, pH 7.5; read-out: MMP-13 IC50
recorded endpoint: IC50 (nM)

CNC(CS(=O)(=O)c1ccc(NC(=O)c2ccccc2)cc1)C(=O)NO (stereo not drawn); 8.1

(P) COc1ccc(S(=O)(=O)CC(N)C(=O)NO)cc1 (stereo not drawn)
(Q) O=C(NC(CS(=O)(=O)c1ccc(Sc2ccccc2)cc1)C(=O)NO)c1cccnc1 (stereo not drawn)
Please indicate which item has the smaller measured IC50: P versus Q The response must carry the label of the picked entry.
Q
(Q: 7 nM, P: 15 nM)

====

# experimental target: MMP-1 (Homo sapiens, UniProt P03956)
# test: In vitro metalloprotease inhibition, fluorogenic MCA peptide substrate
# experimental context: recombinant human enzyme, APMA-activated, room temperature, pH 7.5
pIC50: −log10 of the molar value.
Each item that follows carries a reported pIC50.

Any idea what pIC50 was measured for CC(C)(C)NC(=O)NC(CS(=O)(=O)c1ccc(Sc2ccccc2)cc1)C(=O)NO (stereo not drawn) [Example 20b] ?
< 5.00

Any idea what pIC50 was measured for O=C(NC(CS(=O)(=O)c1ccc(Sc2ccccc2)cc1)C(=O)NO)c1ccco1 (stereo not drawn) ?
< 5.00

Any idea what pIC50 was measured for C[C@H](NC(=O)OCc1ccccc1)C(=O)NC(CS(=O)(=O)c1ccc(Sc2ccccc2)cc1)C(=O)NO (stereo partly drawn) [Example 19a] ?
< 5.00

====

# experimental target: MMP-13 (Homo sapiens)
# Construct: made in house; host or cells: baculovirus / insect cells
# test: In vitro metalloprotease inhibition, fluorogenic MCA peptide substrate
# Format: biochemical
# experimental context: recombinant human enzyme, APMA-activated, room temperature, pH 7.5; read-out: MMP-13 IC50
pIC50: −log10 of the molar value.
recorded endpoint: pIC50

Example entries begin here.
CN(C(=O)OC(C)(C)C)[C@H](CS(=O)(=O)c1ccc(Oc2ccccc2)cc1)C(=O)NO; 9.52
CN(C)C(C)(CS(=O)(=O)c1ccc(Oc2ccccc2)cc1)C(=O)NO (centres unmarked); 7.62
CC(N)(CS(=O)(=O)c1ccc(NC(=O)c2ccccc2)cc1)C(=O)NO (centres unmarked); 7.22
CCNC(C)(CS(=O)(=O)c1ccc(Oc2ccccc2)cc1)C(=O)NO (centres unmarked); 8.80
COc1ccc(S(=O)(=O)CC(NC(C)=O)C(=O)NO)cc1 (centres unmarked) [Example 1]; 7.82

(P) COc1cccc(OC)c1C(=O)N[C@@H](CS(=O)(=O)c1ccc(Oc2ccccc2)cc1)C(=O)NO
(Q) CC(=O)N(C)[C@@H](CS(=O)(=O)c1ccc(Oc2ccccc2)cc1)C(=O)NO
Please indicate which item has the smaller measured pIC50: P versus Q The response must carry the label of the picked entry.
P
(P: 9.40, Q: 9.70)

====

# experimental target: MMP-1 (Homo sapiens)
# test: In vitro metalloprotease inhibition, fluorogenic MCA peptide substrate
# experimental context: recombinant human enzyme, APMA-activated, room temperature, pH 7.5
pIC50: −log10 of the molar value.
recorded endpoint: pIC50

Example entries begin here.
COc1ccc(S(=O)(=O)CC(NC(=O)CCC(=O)O)C(=O)NO)cc1 (stereo not shown); 6.22
CC(CS(=O)(=O)c1ccc(Oc2ccccc2)cc1)(NCCc1ccccc1)C(=O)NO (stereo not shown); 5.62
CCCCC(=O)NC(CS(=O)(=O)c1ccc(OC)cc1)C(=O)NO (stereo not shown); 6.40
CNC(CS(=O)(=O)c1ccc(NC(=O)c2ccccc2)cc1)C(=O)NO (stereo not shown); 5.15
COc1ccc(S(=O)(=O)CC(NC(C)=O)C(=O)NO)cc1 (stereo not shown) [Example 24]; 5.28

(1) CC(=O)N(C)[C@@H](CS(=O)(=O)c1ccc(Oc2ccccc2)cc1)C(=O)NO
(2) CC(N)(CS(=O)(=O)c1ccc(Sc2ccccc2)cc1)C(=O)NO (stereo not shown)
When 1 and 2 are compared, which has the higher number for pIC50? The response must carry the label of the picked entry.
1
(1: 7.05, 2: 5.36)

(I) CN(C(=O)OC(C)(C)C)C(C)(CS(=O)(=O)c1ccc(NC(=O)c2ccccc2)cc1)C(=O)NO (stereo not shown)
(II) CC(=O)N[C@@H](CS(=O)(=O)c1ccc(Oc2ccccc2)cc1)C(=O)NO
When I and II are compared, which has the higher number for pIC50? The response must carry the label of the picked entry.
II
(II: 6.11, I: 5.52)

====

# experimental target: MMP-13 (Homo sapiens)
# Construct: made in house; host or cells: baculovirus / insect cells
# test: In vitro metalloprotease inhibition, fluorogenic MCA peptide substrate
# Format: biochemical
# experimental context: recombinant human enzyme, APMA-activated, room temperature, pH 7.5; read-out: MMP-13 IC50
pIC50: −log10 of the molar value.
recorded endpoint: pIC50

COc1ccc(S(=O)(=O)CC(NC(=O)CCC(=O)O)C(=O)NO)cc1 (stereo not shown); 7.22
O=C(NO)[C@H](CS(=O)(=O)c1ccc(Oc2ccccc2)cc1)N1CCCCC1; 9.52
COc1ccc(S(=O)(=O)CC(NC(C)=O)C(=O)NO)cc1 (stereo not shown) [Example 24]; 6.19
COc1ccc(CC(=O)NC(CS(=O)(=O)c2ccc(Sc3ccccc3)cc2)C(=O)NO)c(OC)c1 (stereo not shown); 9.40
C#CCNC(C)(CS(=O)(=O)c1ccc(Oc2ccccc2)cc1)C(=O)NO (stereo not shown); 9.22

(1) COc1ccc(S(=O)(=O)CC(NC(C)=O)C(=O)NO)cc1OC (stereo not shown)
(2) CN(Cc1ccccc1)[C@H](CS(=O)(=O)c1ccc(Oc2ccccc2)cc1)C(=O)NO
When 1 and 2 are compared, which has the higher number for pIC50? The response must carry the label of the picked entry.
2
(2: 9.70, 1: 5.82)

====

# experimental target: MMP-1 (Homo sapiens)
# test: In vitro metalloprotease inhibition, fluorogenic MCA peptide substrate
# experimental context: recombinant human enzyme, APMA-activated, room temperature, pH 7.5
recorded endpoint: IC50 (nM)

O=C(N[C@@H](CS(=O)(=O)c1ccc(Oc2ccccc2)cc1)C(=O)NO)c1ccnc2ccccc12 [Example 50]; 316
CC(=O)N1CCC(C(=O)NC(CS(=O)(=O)c2ccc(Oc3ccccc3)cc2)C(=O)NO)CC1 (stereo not shown); 580
COc1ccc(S(=O)(=O)CC(NC(=O)[C@@H](C)NC(=O)OCc2ccccc2)C(=O)NO)cc1 (stereo partly shown); 1

(a) COc1ccc(S(=O)(=O)CC(NC(=O)c2ccccc2)C(=O)NO)cc1 (stereo not shown)
(b) Cc1ccc(S(=O)(=O)NC(CS(=O)(=O)c2ccc(Sc3ccccc3)cc2)C(=O)NO)cc1 (stereo not shown) [Example 17c]
(c) O=C(N[C@@H](CS(=O)(=O)c1ccc(Oc2ccccc2)cc1)C(=O)NO)c1ccncc1 [Example 46]
(d) Cc1ccc(S(=O)(=O)NC(CS(=O)(=O)c2ccc(Oc3ccccc3)cc2)C(=O)NO)cc1 (stereo not shown) [Example 12c]
Order by IC50, ascending. # the answer lists labels in the order requested
d, b, c, a
